conditions: in isopropanol, 303.15 K
Metric Name: solubility (mole fraction)
Number only, no unit.

Inquiry: Item `Nc1cccc(S(=O)(=O)c2cccc(N)c2)c1` has what recorded solubility (mole fraction)?
Reply text: 0.00258

###

details: in isobutanol, 318.15 K
Metric Name: solubility (mole fraction)

Inquiry: Item `Nc1cccc(S(=O)(=O)c2cccc(N)c2)c1` has what recorded solubility (mole fraction)?
Reply text: 0.002

###

settings: in 1,4-dioxane, 323.15 K
Metric Name: solubility (mole fraction)
Number only, no unit.

Inquiry: Item `Nc1cccc(S(=O)(=O)c2cccc(N)c2)c1` has what recorded solubility (mole fraction)?
Reply text: 0.0169

###

details: in methanol, 293.15 K
Metric Name: solubility (mole fraction)
Number only, no unit.

Inquiry: Item `Nc1cccc(S(=O)(=O)c2cccc(N)c2)c1` has what recorded solubility (mole fraction)?
Reply text: 0.00397
